Every entry's value here was drawn from PubChem BioAssay (NCI).

- experimentSummary: NCI Yeast Anticancer Drug Screen. Data for the mlh1 rad18 strain (AID 175)
- studyConditions: S. cerevisiae mlh1 rad18 strain growth inhibition; at 50.0 µM (retest, dose inferred, filed as 5.0)
About 79,000 compounds went through this panel and 15% of them were active in at least one assay; those are over-represented in the sample as a whole. Activity calls are given as the source filed them. Cut-off read from the data, not from the text of the source: active = growth inhibition above about 70%; inactive = the rest.
Field 'call' accepts TRUE = active, FALSE = inactive

Could you check what this test reported for Oc1ccc(-c2nc(-c3ccc(F)cc3)c(-c3ccc4ccccc4n3)[nH]2)cc1 ? TRUE

Look up the recorded call for O=C(CSC(=S)N1CCCCC1)Nc1nc2c(s1)CCCC2 in this test. FALSE
